The following compounds are shown together with reported TGI values.
System: NCI-H226 lung
procedureDetails: NCI tumour cell line growth inhibition, 48 h
measuredEndpoint: TGI

compound | observedResult
CC1(CCOCc2ccccc2)NC(=O)NC1=O (stereo not drawn) | > 100 µM
CCCN1C(=O)N(CCC)C2C1NC(=S)N2/N=C/C=C/c1ccccc1OC (stereo not drawn) | > 43.9 µM
Cc1nn(-c2ccccc2)c2c1C(c1ccc(Cl)cc1)NC(=S)N2 (stereo not drawn) | > 100 µM

###

Tested on: HT29 colon
procedureDetails: NCI tumour cell line growth inhibition, 48 h

compound | TGI
O=C(/C=C/c1cc2ccccc2o1)N1CCN(c2ccccn2)CC1 | > 100 µM
Cc1ccnc2[nH]c3ccccc3c(=O)c12 | 36 µM
CC1(CCOCc2ccccc2)NC(=O)NC1=O (centres undefined) | > 100 µM
CCOc1ccccc1NC(=O)C(=O)CC(=O)c1sc(Nc2nnc(-c3ccc(Cl)c(Cl)c3)o2)nc1C | > 100 µM

###

Test system: HOP-92 NSCLC
procedureDetails: NCI tumour cell line growth inhibition, 48 h
measuredEndpoint: TGI

smilesString | observedResult
Cn1ccc(C(=O)NCCN(CCNC(=O)c2ccn(C)c(=O)c2O)CCNC(=O)c2cccc(=O)n2O)c(O)c1=O | > 100 µM
CCOC(=O)Nc1ccc(C)c(NC(=O)OCC)c1 | > 100 µM
Cn1c(=O)c2c(nc(Cc3ccccc3)n2CC(=O)O)n(C)c1=O | > 100 µM

###

System: CAKI-1 renal
procedureDetails: NCI tumour cell line growth inhibition, 48 h
measuredEndpoint: TGI

molecule | measuredEndpoint | observedResult
COc1cc(F)ccc1-c1ncnc(Nc2cccc(CS(C)(=N)=O)c2)n1 (stereo not drawn) | TGI | > 100 µM
Cc1ccccc1N1C(=O)C2C=CC(n3[nH]c(=O)n(Cc4ccccc4)c3=O)CC2C1=O (stereo not drawn) | TGI | > 100 µM
CC(=O)c1sc(Nc2nnc(-c3ccc(-c4nnc(Nc5nc(C)c(C(C)=O)s5)o4)cc3)o2)nc1C | TGI | > 10 µM
CN(C)C1(N(C)C)Oc2c(c(=O)n(C)c(=O)n2C)C(c2ccccc2)C1(F)F (stereo not drawn) | TGI | > 100 µM
CCn1c2ccccc2c2cc(NC(=O)Nc3ccc([N+](=O)[O-])cc3C)ccc21 | TGI | 17.5 µM
OCC1OC(c2nc(C3=NCCCN3)cs2)C(O)C1O (stereo not drawn) | TGI | > 100 µM
Cc1ccnc2[nH]c3ccccc3c(=O)c12 | TGI | 38.5 µM
CO/N=C(\COc1ccc2c(c1)oc(=O)c1cc(OC)ccc12)c1ccc(OC)cc1 | TGI | > 100 µM
Cc1ccc(NC(=O)CCc2cc(C(C)(C)C)nc(=S)[nH]2)cc1C | TGI | > 100 µM
CC(=O)Oc1c2c(c(O)c3ccccc13)C(n1cnc3c(ncn3C3OC(CO)C4OC(C)(C)OC43)c1=N)CCC2 (stereo not drawn) | TGI | 50.1 µM
CCOC(=O)C12OC(CCC1=O)C(C(=O)OC)=C2C(=O)OC (stereo not drawn) | TGI | > 10 µM
Cc1cc2oc(=N)c(C#N)c(C)c2cc1C | TGI | > 100 µM
O=C(/C=C/c1cc2ccccc2o1)N1CCN(c2ccccn2)CC1 | TGI | > 100 µM
COc1cc2c(C)cc(O)cc2c2cc(O)c(C)cc12 | TGI | 22.4 µM
CC1(CCOCc2ccccc2)NC(=O)NC1=O (stereo not drawn) | TGI | > 100 µM
Oc1[nH]c2ccccc2c1N=NC(=S)Nc1cccc(Cl)c1 | TGI | 44.9 µM
COc1ccc2cc(/C=N/NC(=O)Nc3ccccc3)ccc2c1 | TGI | > 100 µM
CC(O)C1(CNc2cc(Cl)nc(N)n2)CCC1 (stereo not drawn) | TGI | > 100 µM
COC(=O)/C=C(\C)CC(O)/C=C(\C)CCC=C(C)C (stereo not drawn) | TGI | > 100 µM
CCOc1ccc(NC(=O)C(=O)CC(=O)c2c(C)n([O-])c3ccccc3[n+]2=O)cc1 | TGI | > 100 µM
CCN1CCC(O)(c2ccc(OC)cc2)C(C(=O)c2ccc(OC)cc2)C1 (stereo not drawn) | TGI | 31.3 µM
Nc1nc(SC/C=C/c2ccccc2)c2[nH]cnc2n1 | TGI | > 100 µM
Cc1[nH]nc(C(F)(F)F)c1N=NN1CCOCC1 | TGI | 4.67 µM

###

Tested on: M14 melanoma
procedureDetails: NCI tumour cell line growth inhibition, 48 h; in the data active = GI50 below about 0.43 µM; inactive = the rest
Labels: active, inactive

compound | classAssignment
CCOC(=O)Nc1ccc(-c2nc(-c3cccc(OCCN4CCOCC4)c3)c(-c3ccnc(Br)c3)[nH]2)cc1 | inactive
COc1ccc(-c2nn(-c3ccc(NC(=O)c4ccc(Cl)c(Cl)c4)cc3)cc2-c2ccncc2)cc1Cl | inactive
O=C(c1ccccc1)c1cc2ccccc2o1 | inactive
Cn1cc(C2=C(c3cn(CCCCO)c4ccccc34)C(=O)NC2=O)c2ccccc21 | inactive
CN1C(=O)N(C)C2C1NN=c1s/c(=C\c3ccc(Cl)cc3Cl)c(=O)n12 (stereo unspecified) | active
Cn1cc(-c2csc(-c3c[nH]c4ccc(F)cc34)n2)c2cnccc21 | inactive

###

Test system: OVCAR-5 ovarian
procedureDetails: NCI tumour cell line growth inhibition, 48 h

compound | TGI
COc1cc2c(C)cc(O)cc2c2cc(O)c(C)cc12 | 24.3 µM
CCOC(=O)C12OC(CCC1=O)C(C(=O)OC)=C2C(=O)OC (stereo not drawn) | > 10 µM
CN(C)CCCC12CCCCC1=Nc1ccccc12 (stereo not drawn) | > 100 µM
N#CC(C(=O)C(=O)C(C#N)c1ccc(Br)cc1)c1ccc(Br)cc1 (stereo not drawn) | 32.1 µM
CC1c2c(Cl)nc3ccccc3c2Oc2c1c(Cl)nc1ccccc21 | > 100 µM
COc1ccc(C(=O)/C=C/c2cc(-c3cc(OC)c(OC)c(OC)c3)n[nH]2)cc1OC | 3.03 µM
CCOC(=O)c1nnc2c(C(=O)OCC)c3ccccc3n2c1N | > 100 µM
COC(=O)c1cc2ccc(N)nc2[nH]c1=O | > 100 µM
C/C=C(/C)C(=O)O[C@@H]1CCN2CC[C@H](COC(=O)/C(=C/C)CO)C12 (stereo partly drawn) | > 100 µM
COC(=O)C1=C(O)C(C(=O)OC)[C@]2(O)[C@H](C(=O)OC)[C@H]1C[C@@H](c1ccc(C(F)(F)F)cc1)[C@H]2C(=O)OC (stereo partly drawn) | 15 µM
CN=C1CC2c3cc(OC)c(OC)cc3CCN2C2=C1C(=O)CC(C)(C)C2 (stereo not drawn) | > 100 µM
CNCC#Cc1c(F)ccc2c1/C(=C/c1[nH]ccc1OC)C(=O)N2 | 3.16 µM
CN1C(=O)N(C)C2C1NN=c1s/c(=C\c3ccc(Cl)cc3Cl)c(=O)n12 (stereo not drawn) | > 100 µM

###

System: SK-MEL-2 melanoma
procedureDetails: NCI tumour cell line growth inhibition, 48 h
We begin with a simple list: items and their reported TGI.
measuredEndpoint: TGI

compound | observedResult
CN(C)CCCC12CCCCC1=Nc1ccccc12 (stereo not drawn) | > 100 µM
CCOC(=O)C(=[N+]=[N-])[Si](C)(C)C | > 100 µM
O=c1ccn([C@H]2CSC[C@@H](CO)C2)c(=O)[nH]1 | > 100 µM
CS(=O)(=O)CCNCc1nc(-c2ccc3ncnc(Nc4ccc(OCc5cccc(C(F)(F)F)c5)cc4)c3c2)cs1 | > 22.1 µM
COc1ccc(P2(=S)OC(C)(C)C(C)(C)O2)cc1 | > 100 µM
CN(C)CCCN1CCC2(CCC(C(C)(C)C)CC2)CC1 | 3.26 µM
COc1cc2c(C)cc(O)cc2c2cc(O)c(C)cc12 | 31.3 µM
COc1cc2c3c(n(C)c(=O)c2cc1OC)-c1cc2c(cc1/C3=C\CN)OCO2 | > 100 µM
COC(=O)C1=C(C(=O)NNc2ccccc2)N(c2cccnc2Cl)C(c2ccccc2)=CC1c1ccccc1 (stereo not drawn) | 76.6 µM
Cn1c(=O)n(C2(C)C[Se]C2)c2ccccc21 | > 100 µM
Cc1[nH]c2ccccc2c1C(=O)/C=C/c1ccccc1O | > 100 µM
N#Cc1c(N)nc2n[nH]c(N)c2c1-c1ccc(Cl)cc1 | 6.57 µM
CC[C@H]1[C@@H]2C=C[C@@H]3[C@H]4C/C=C\C(=O)NCCC[C@@H]5NC(=O)/C(=C(O)/C=C/[C@@H]4C[C@@H]3[C@H]2C[C@H]1C)C5=O | 6.01 µM

###

System: LOX IMVI melanoma
procedureDetails: NCI tumour cell line growth inhibition, 48 h
Reported TGI values for a set of molecules

molecule | TGI
CN1CCOC(c2ccccc2)O1 (stereo unspecified) | > 100 µM
CC12CP(=O)(c3ccccc3)CC1C2(Cl)Cl (stereo unspecified) | > 100 µM
CC1c2c(Cl)nc3ccccc3c2Oc2c1c(Cl)nc1ccccc21 | > 100 µM
COc1ccc(/C=C2/N=C(c3ccccc3)N(c3c(C)n(C)n(-c4ccccc4)c3=O)C2=O)cc1OC | > 100 µM
C/C=C(/C)C(=O)O[C@@H]1CCN2CC[C@H](COC(=O)/C(=C/C)CO)C12 (stereo partly specified) | > 100 µM
Cc1ccc(NC(=O)CC2CC2)cc1-c1ccc(C(=O)NCC2CC2)cc1 | > 25 µM
